Test: Pharmacokinetics of PTI, plasma levels after i.p. dose
Conditions: mouse, plasma, ip, 58 mg/kg
Readout label: Tmax
The reply should consist of the numeric value with the unit placed after it.

Prompt: What does the data say about its Tmax? Entry: COc1ccc2c(c1)c(CC(=O)O)c(C)n2C(=O)c1ccc(Cl)cc1 [indomethacin, reference compound]
Completion: 1 h

====

Experiment: in vivo
Settings: nude, mouse, ip
Readout label: MTD at 12 days (mg/kg/day)
One number for each entry, in mg/kg/day.

Prompt: What does the data say about its MTD at 12 days? Entry: CCOP(=O)(OCC)OCC(CNC(=O)C(C)c1ccc(CC(C)C)cc1)OP(=O)(OCC)OCC (stereo not shown) [Compound 4, Phospho-Ibuprofen Gylcerol Amide]
Completion: 20

====

Test: in vivo
Settings: wt (wild type) and nude, mouse, po
Readout label: MTD at 1 week

Prompt: What does the data say about its MTD at 1 week? Entry: CCOP(=O)(OCC)OCC(CNC(=O)CC1=C(C)/C(=C/c2ccc([S+](C)[O-])cc2)c2ccc(F)cc21)OP(=O)(OCC)OCC (stereo not shown) [Compound 99]
Completion: > 500 mg/kg/day
